Source of measurements: patent US8048862B2

- Tested on: hepatitis C replicon
- test.method.notes: hepatitis C replicon EC50
- Format: cell-based
- condition.parameters: Hepatitis C virus; Table 2; hepatitis C replicon; read-out: EC50
pEC50: −log10 of the molar value.
property: pEC50

Cc1cccc2c1nc(O[C@@H]1C[C@H]3C(=O)N[C@]4(C(=O)NS(=O)(=O)C5(C)CC5)C[C@H]4/C=C\CCCCC[C@H](Nc4ccccc4)C(=O)N3C1)n2C(C)C [Compound 471] = 7.12 to 8.00
COc1ccc2c(O[C@@H]3C[C@H]4C(=O)N[C@]5(C(=O)O)C[C@H]5/C=C\CCCCC[C@H](Nc5ccccc5)C(=O)N4C3)cc(-c3nc(C(C)C)cs3)nc2c1C [Compound 449] = 7.12 to 8.00

Turning now to a further molecule:
Request: Which pEC50 reading was recorded for the molecule CC(C)Cn1c(O[C@@H]2C[C@H]3C(=O)N[C@]4(C(=O)NS(=O)(=O)C5(C)CC5)C[C@H]4/C=C\CCCCC[C@H](Nc4cc(F)cc(C(F)(F)F)c4)C(=O)N3C2)nc2ccccc21 [Compound 402] ?
Result: 7.12 to 8.00
